ASSAYED_TARGET: T1, HCV Core1-169 (hepatitis C virus (HCV-1), UniProt P26664 1-169)
T1 sequence: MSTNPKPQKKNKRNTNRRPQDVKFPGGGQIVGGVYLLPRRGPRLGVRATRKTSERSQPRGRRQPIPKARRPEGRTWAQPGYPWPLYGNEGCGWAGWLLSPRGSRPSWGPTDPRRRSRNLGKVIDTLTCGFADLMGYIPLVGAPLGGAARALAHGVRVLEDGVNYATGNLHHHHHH
PROTOCOL_DETAILS: SPR sandwich, capture mAb C11-14
Threshold 3%. expected percent binding below it: Condition met. expected percent binding at it or above: Condition not met.

{"columns": ["BINDER", "CLASS_ASSIGNMENT"],
 "data": [
  ["HCV 208A-877 (antibody, V domains shown) VH: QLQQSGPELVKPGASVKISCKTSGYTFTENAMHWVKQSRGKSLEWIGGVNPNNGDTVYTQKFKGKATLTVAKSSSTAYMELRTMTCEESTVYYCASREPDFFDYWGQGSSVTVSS VL: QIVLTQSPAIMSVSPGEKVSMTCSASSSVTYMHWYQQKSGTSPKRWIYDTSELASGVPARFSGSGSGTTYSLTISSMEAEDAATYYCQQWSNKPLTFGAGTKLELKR", "Condition not met"],
  ["HCV 208A-638 (antibody, V domains shown) VH: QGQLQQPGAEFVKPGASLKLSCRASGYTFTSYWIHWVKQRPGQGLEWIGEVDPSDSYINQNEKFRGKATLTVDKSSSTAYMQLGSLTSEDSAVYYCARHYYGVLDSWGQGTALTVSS VL: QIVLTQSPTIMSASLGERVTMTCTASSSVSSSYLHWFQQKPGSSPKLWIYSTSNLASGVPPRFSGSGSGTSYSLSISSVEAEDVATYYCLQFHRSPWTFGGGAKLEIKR", "Condition not met"],
  ["HCV 208A-126 (antibody, V domains shown) VH: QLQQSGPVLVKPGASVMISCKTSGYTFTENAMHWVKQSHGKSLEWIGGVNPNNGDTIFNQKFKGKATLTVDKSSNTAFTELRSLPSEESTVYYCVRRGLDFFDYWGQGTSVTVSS VL: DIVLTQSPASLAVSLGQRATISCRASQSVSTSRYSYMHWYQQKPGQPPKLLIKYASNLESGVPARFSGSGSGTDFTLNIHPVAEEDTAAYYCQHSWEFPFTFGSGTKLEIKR", "Condition met"],
  ["HCV 208B-612 (antibody, V domains shown) VH: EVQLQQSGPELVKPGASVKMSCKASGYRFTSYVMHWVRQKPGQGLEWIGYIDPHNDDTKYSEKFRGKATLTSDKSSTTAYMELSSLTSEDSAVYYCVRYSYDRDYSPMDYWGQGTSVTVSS VL: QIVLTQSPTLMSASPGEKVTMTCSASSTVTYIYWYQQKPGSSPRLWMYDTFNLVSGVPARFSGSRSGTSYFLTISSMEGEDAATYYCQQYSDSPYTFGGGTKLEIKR", "Condition not met"],
  ["HCV 208A-830 (antibody, V domains shown) VH: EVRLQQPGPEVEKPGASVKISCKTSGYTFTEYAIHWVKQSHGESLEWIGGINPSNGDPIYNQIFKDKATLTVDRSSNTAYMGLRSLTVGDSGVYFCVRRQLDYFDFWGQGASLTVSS VL: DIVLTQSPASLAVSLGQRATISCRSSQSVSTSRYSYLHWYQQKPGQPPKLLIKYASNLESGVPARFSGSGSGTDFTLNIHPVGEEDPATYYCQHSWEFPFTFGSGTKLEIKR", "Condition not met"]
]}
